Hey, just so you know, these numbers are from ChEMBL document CHEMBL1201862.

System: HOP-62
assay-procedure: NCI tumour cell line growth inhibition, 48 h
The source made the active and inactive calls. No stated cut-off is given here; in the data, active = GI50 up to about 1.1 µM and inactive = higher.
endpoint-name: GI50

Here's what some known entries look like.
[[record]]
molecule = "Nc1ccc(-c2nc3ccccc3s2)cc1C#Cc1ccccc1"
target = "HOP-62"
val = "14.5 µM (inactive)"

[[record]]
molecule = "CC(O)(c1ccc(OCCC[N+](C)(C)C)cc1)C(C)(O)c1ccc(OCCC[N+](C)(C)C)cc1 (stereo not drawn)"
target = "HOP-62"
val = "> 100 µM (inactive)"

[[record]]
molecule = "Cc1cccc2c1[C@]13OC(C)[C@]4(C)CC5OC(=O)[C@@]1(C)[C@@H]5[C@]34C(=O)O2 (stereo partly drawn)"
target = "HOP-62"
val = "> 100 µM (inactive)"

[[record]]
molecule = "Cc1ccccc1Nc1nc2ccccc2nc1NS(=O)(=O)c1ccccc1"
target = "HOP-62"
val = "68.1 µM (inactive)"

[[record]]
molecule = "COc1ccc(C[n+]2cccc(O)c2)cc1"
target = "HOP-62"
val = "> 100 µM (inactive)"


Provide GI50 value for the following molecule: Cc1ccc2c(c1)NC(=O)CCSSCCC(=O)N2
> 100 µM (inactive)

Output measured GI50 for this item: Cc1ccc2nc3c(C)cc(=O)cc-3sc2c1
27.5 µM (inactive)

Specify measured GI50 for O=C1CN2C(c3ccccc3)=NN(c3ccc([N+](=O)[O-])cc3)C2(c2ccccc2)c2cc(Cl)ccc2N1CC1CC1 (stereo not drawn) .
> 100 µM (inactive)

---

Tested on: SF-268
assay-procedure: NCI tumour cell line growth inhibition, 48 h
Active and inactive are the calls of the source. Cut-off read from the data, not from the text of the source: active = GI50 up to about 1.1 µM and inactive = higher.
endpoint-name: GI50

The cases that follow already have their GI50 on record.
[[record]]
compound = "O=C1CC(c2ccc([N+](=O)[O-])cc2)C2(C(=O)NC(=S)NC2=O)C(c2ccc([N+](=O)[O-])cc2)C1 (stereo not drawn)"
val = "21.4 µM (inactive)"

[[record]]
compound = "O=C(c1ccc(Cl)cc1Cl)N(/N=C/C=C/c1ccccc1)c1nnc(-c2ccccc2)c(-c2ccccc2)n1"
val = "> 100 µM (inactive)"


Attention now shifts to the item below.
Please look at CCOC(=O)/C=C/C(Br)=C(Br)/C=C/C(=O)OCC and tell me its recorded GI50 on SF-268.
18 µM (inactive)

---

// reported GI50 for each item listed
Tested on: OVCAR-4
assay-procedure: NCI tumour cell line growth inhibition, 48 h
Active and inactive are the calls of the source. Cut-off read from the data, not from the text of the source: active = GI50 up to about 1.1 µM and inactive = higher.

[[record]]
compound = "CC(=O)O[C@@H]1[C@@H](C)[C@]2(CC(c3ccoc3)OC2O)C2CCC3O[C@]3(C)[C@]2(C)[C@@H]1OC(C)=O (stereo not given in full)"
val = "12.5 µM (inactive)"

[[record]]
compound = "COc1cccc(/C=C/c2ccnc3ccccc23)c1OC"
val = "> 10 µM (inactive)"

[[record]]
compound = "COC(=O)[C@H]1C=C[C@H](OC2OC(COC(C)=O)C(OC(C)=O)C(OC(C)=O)C2OC(C)=O)n2c(=O)n(-c3ccccc3)c(=O)n21 (stereo not given in full)"
val = "2.87 µM (inactive)"

[[record]]
compound = "C/C=C1\\CNC1C(=O)O (stereo not given)"
val = "> 100 µM (inactive)"

[[record]]
compound = "Nc1ccc(-c2nc3ccccc3s2)cc1CO"
val = "> 39.2 µM (inactive)"


Name the recorded GI50 of C=CC(=O)N1C/C(=C\c2ccc(N(C)C)cc2)C(=O)/C(=C/c2ccc(N(C)C)cc2)C1 , assay system OVCAR-4.
> 100 µM (inactive)

Write down the reported GI50 (system: OVCAR-4) of O=C1CC(c2ccc([N+](=O)[O-])cc2)C2(C(=O)NC(=S)NC2=O)C(c2ccc([N+](=O)[O-])cc2)C1 (stereo not given)
45.7 µM (inactive)

Look up and report measured GI50 (OVCAR-4) for the following compound: CC1C2CC(CC23OCC(CCl)O3)C1(C)C (stereo not given)
> 100 µM (inactive)

Report value only: GI50, OVCAR-4, COc1ccc(COCC(Cn2ccnc2)OCc2ccc(C(=O)O)cc2)cc1 (stereo not given)
> 100 µM (inactive)

Report measured GI50 on OVCAR-4; entry: Cc1ccccc1Nc1nc2ccccc2nc1NS(=O)(=O)c1ccccc1
38.5 µM (inactive)

Print OVCAR-4 GI50 for COC(=O)NC(=O)c1cn(C2OC(CO)C(O)C2O)c(=O)[nH]c1=O (stereo not given) .
> 100 µM (inactive)

Using OVCAR-4 as the test system, report measured GI50 of NC(=O)c1nnsc1NN=O .
> 100 µM (inactive)

---

Tested on: M14
assay-procedure: NCI tumour cell line growth inhibition, 48 h
Calls of active or inactive are those of the source. Cut-off read from the data, not from the text of the source: active = GI50 up to about 1.1 µM and inactive = higher.
endpoint-name: GI50

// known answers, use as guide
[[record]]
molecule = "C=C1CCC2C(C)(CO)C(O)CCC2(C)C1C/C=C1\\C(=O)OCC1O (stereo not drawn)"
endpoint_name = "GI50"
val = "17.8 µM (inactive)"

[[record]]
molecule = "COc1ccc(OC)c(NC(=O)C(=O)NNC(=O)c2sc(NNC(C)=O)nc2C)c1"
endpoint_name = "GI50"
val = "50.9 µM (inactive)"


Lab note: M14 assay, enter GI50 for CSC1C(=O)Nc2ccc3ccccc3c21 (stereo not drawn) here
23.1 µM (inactive)

State the measured GI50 (M14) of COc1ccc(N(C(=O)Nc2ccc(Cl)c(Cl)c2)c2ccccc2)cc1
> 10 µM (inactive)

Under M14: report GI50 of CC(=O)ON(OC(C)=O)c1ccc(C)cc1 .
> 100 µM (inactive)

Tell me GI50 of CCOC(=O)/C=C/C(Br)=C(Br)/C=C/C(=O)OCC when tested on M14.
13.3 µM (inactive)

Report value only: GI50, M14, COC(=O)C1Cc2c([nH]c3ccccc23)C(c2ccccc2O)N1Cc1ccccc1 (stereo not drawn)
38.4 µM (inactive)

Jot down GI50 (M14) of Cc1ccccc1Nc1nc2ccccc2nc1NS(=O)(=O)c1ccccc1 .
> 100 µM (inactive)

---

Quick list: GI50 per entry.
Test system: ACHN
assay-procedure: NCI tumour cell line growth inhibition, 48 h
The source made the active and inactive calls. Rule as the data show it: active = GI50 up to about 1.1 µM and inactive = higher.

Examples with their reported GI50 follow.
[[record]]
compound = "N#CC1([N+](=O)[O-])C=C1c1ccccc1 (stereo unspecified)"
target = "ACHN"
endpoint_name = "GI50"
val = "38.6 µM (inactive)"

[[record]]
compound = "O=C(c1ccc(Cl)cc1Cl)N(/N=C/C=C/c1ccccc1)c1nnc(-c2ccccc2)c(-c2ccccc2)n1"
target = "ACHN"
endpoint_name = "GI50"
val = "> 100 µM (inactive)"


Tell us which GI50 value is on record for O=C(O)c1cc(=O)c2cc(C(=O)c3cccs3)c(Cl)c(Cl)c2o1
> 100 µM (inactive)

Give the reported GI50 for this compound. COc1ccc(C(CC(=O)C(C)(C)CN2CCCCC2)SCCS(=O)(=O)O)cc1 (stereo unspecified)
33.2 µM (inactive)

Quote GI50 reported for COCOc1c(C(OCOC)c2cnc(Sc3ccccc3)n2C)ccc(OC)c1OC (stereo unspecified) please.
> 100 µM (inactive)

Using known records, supply GI50 for CC(C)Oc1cccc(N2C(CCc3c[nH]c4ccc(Br)cc34)=NS(=O)(=O)c3cnccc32)c1
28.7 µM (inactive)

---

System: SK-MEL-5
assay-procedure: NCI tumour cell line growth inhibition, 48 h
Calls of active or inactive are those of the source. Rule as the data show it: active = GI50 up to about 1.1 µM and inactive = higher.
Overview of recorded GI50 for various molecules

[[record]]
molecule = "O=c1c(-c2ccccc2)c(SCCN2CCCCCC2)n(-c2ccccc2)c(=S)n1-c1ccccc1"
endpoint_name = "GI50"
val = "23.2 µM (inactive)"


Please look at this molecule and report its GI50: COc1cc2c(cc1OC)C(=O)/C(=C/c1ccc([N+](=O)[O-])cc1)CC2
> 10 µM (inactive)

Given the molecule O=C1/C(=C/c2ccc(Cl)cc2)N=C(c2ccccc2)N1c1ccc(S(=O)(=O)Nc2nccs2)cc1 , write its reported GI50.
23.1 µM (inactive)

Assign GI50 to the following record: COc1cc(OC)c2nccc(NCCCN(C)C)c2c1[N+](=O)[O-]
> 100 µM (inactive)

Quick one: give measured GI50 for CC#CC1C2CCCC1(CSc1ccccc1)NC(=O)O2 (stereo unspecified)
> 100 µM (inactive)

Quick one: give measured GI50 for Nc1nnc2ccc(Cl)cc2[n+]1[O-]
31 µM (inactive)

---

System: LOX IMVI
assay-procedure: NCI tumour cell line growth inhibition, 48 h
The source made the active and inactive calls. Rule as the data show it: active = GI50 up to about 1.1 µM and inactive = higher.
Here, each record is paired with measured GI50 data.

Completed entries (count: 2):
[[record]]
molecule = "CC1(C)CC(=O)c2c(nc(SSc3nc4c(c(-c5ccccc5)c3C#N)C(=O)CC(C)(C)C4)c(C#N)c2-c2ccccc2)C1"
val = "> 10 µM (inactive)"

[[record]]
molecule = "CC1OC(OC2C(OC(=O)[C@@H]3CC(C)(C)C[C@@H]4C5=CC[C@@H]6[C@@]7(C)C[C@H](O)[C@H](OC8OC(CO)C(O)C(O)C8O)[C@@](C)(CO)C7[C@H](O)C[C@@]6(C)[C@]5(C)C[C@@H](O)[C@H]43)OCC(O)C2O)C(O)C(O)C1O (stereo partly drawn)"
val = "> 15 µM (inactive)"


Recall and state the measured GI50 for O=C(CC1C(=O)Nc2ccccc2[S+]1[O-])Nc1ccc(Cl)cc1 (stereo not drawn) .
> 100 µM (inactive)

// fetch GI50 given entry COc1c(C)c(C/C=C(\C)CC/C=C(\C)CC/C=C(\C)CC/C=C(\C)CCC=C(C)C)c(OC)c(OC)c1OC
17.1 µM (inactive)

# return recorded GI50 for input CC(C)c1cccc(C(C)C)c1NC(=O)C(=O)Cc1nc2ccc([N+](=O)[O-])cc2nc1O
23.2 µM (inactive)

Quickly give me recorded GI50 for COc1cccc2c1C(=O)c1c(O)c3c(c(O)c1C2=O)C[C@@](O)(C(=O)CO)CC3OC1CC(N(C)CCOCC(OC(C)=O)OC(C)=O)C(O)C(C)O1 (stereo partly drawn)
> 0.01 µM (active)

Tell me GI50 reported for NNC(=O)C(=O)N/N=C(\CCC(=O)Nc1ccc(Cl)cc1)Cc1nc2ccccc2s1
17.7 µM (inactive)

Return GI50 (reported value) for this molecule: COC(=O)/C=C/[C@H]1[C@H](C)N1S(=O)(=O)c1ccc(C)cc1 (stereo partly drawn)
61.7 µM (inactive)
